- System: elastase from human neutrophil (Homo sapiens, UniProt P08246)
- Construct: using elastase from human neutrophil; from tissue; host or cells: human neutrophil
- Assay name: Inhibitory effect on elastase (spectrophotometric method, substrate Suc-Ala-Pro-Ala-pNA)
- Assay type: biochemical
- Details: Y represents an oxygen atom; pH 8.0, 37° C., 30 minutes; read-out: Inhibitory Effect on Elastase, IC50
pIC50: −log10 of the molar value.
Readout type: pIC50

Example entries begin here.
Prompt line: Please tell me: pIC50 of CCS(=O)(=O)Oc1cc(COC)cc(OC(=O)c2ccc(NC(=N)N)cc2)c1 , system elastase from human neutrophil (Homo sapiens, UniProt P08246)?
Response line: 4.22

Prompt line: Subsequent entry: N=C(N)Nc1ccc(C(=O)Oc2cc(Cl)ccc2C(=O)O)cc1
Response line: 4.22

P: N=C(N)Nc1ccc(C(=O)Oc2cc(NC(=N)N)ccc2Cl)cc1
Q: N=C(N)Nc1ccc(C(=O)Oc2cc(Cl)cc(C(=O)N3CCS(=O)(=O)C3)c2)cc1
Prompt line: Given the listed items, does P or Q have the lesser reported pIC50? Write the label of whichever entry you select.
Response line: P
(P: 4.33, Q: 5.51)

###

- System: elastase from human neutrophil (Homo sapiens, UniProt P08246)
- Construct: using elastase from human neutrophil; from tissue; host or cells: human neutrophil
- Sequence (P08246 30-247 limits assumed): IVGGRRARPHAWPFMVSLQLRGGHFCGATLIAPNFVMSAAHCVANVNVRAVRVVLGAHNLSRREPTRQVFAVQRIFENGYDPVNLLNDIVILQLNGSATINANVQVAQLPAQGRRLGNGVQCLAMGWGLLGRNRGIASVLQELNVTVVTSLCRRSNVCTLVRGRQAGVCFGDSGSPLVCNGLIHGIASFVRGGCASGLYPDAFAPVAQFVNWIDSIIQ
- Assay name: Inhibitory effect on elastase (spectrophotometric method, substrate Suc-Ala-Pro-Ala-pNA)
- Assay type: biochemical
IC50 values, listed per item
Write the value in nM as a bare number.

Prompt line: I'd like to know its IC50. The compound in question is CN(C)C(=O)Oc1cc(Cl)cc(OC(=O)c2ccc(NC(=N)N)cc2)c1
Response line: 760

Moving on to the next compound.
Prompt line: I'd like to know its IC50. The compound in question is CCNC(=O)Oc1cc(Cl)cc(OC(=O)c2ccc(NC(=N)N)cc2)c1
Response line: 1100

###

- System: elastase from human neutrophil (Homo sapiens, UniProt P08246)
- Construct: using elastase from human neutrophil; from tissue; host or cells: human neutrophil
- Assay name: Inhibitory effect on elastase (spectrophotometric method, substrate Suc-Ala-Pro-Ala-pNA)
- Type: biochemical
- Details: at 100 μM; Y represents an oxygen atom
Readout type: inhibition at 100 µM (%)

Prompt line: Please tell me: inhibition at 100 µM of N=C(N)Nc1ccc(C(=O)Oc2ccccc2Br)cc1 , system elastase from human neutrophil (Homo sapiens, UniProt P08246)?
Response line: 82.1

Prompt line: Subsequent entry: COc1cc(OC(=O)c2ccc(NC(=N)N)cc2)ccc1Cl
Response line: 39

Prompt line: Subsequent entry: N=C(N)Nc1ccc(C(=O)Oc2ccccc2F)cc1
Response line: 76.3

P: N=C(N)Nc1ccc(C(=O)Oc2ccccc2Cl)cc1
Q: COc1cccc(OC(=O)c2ccc(NC(=N)N)cc2)c1
R: COC(=O)Cc1cccc(OC(=O)c2ccc(NC(=N)N)cc2)c1
Prompt line: Could you please order the items by inhibition at 100 µM, going from the lowest number to the highest? Write the labels in rank order as requested.
Response line: R, Q, P
(R: 15.6%, Q: 50.9%, P: 76.8%)

###

- System: elastase from human neutrophil (Homo sapiens)
- Construct: using elastase from human neutrophil; from tissue; host or cells: human neutrophil
- Sequence (P08246 30-247 limits assumed): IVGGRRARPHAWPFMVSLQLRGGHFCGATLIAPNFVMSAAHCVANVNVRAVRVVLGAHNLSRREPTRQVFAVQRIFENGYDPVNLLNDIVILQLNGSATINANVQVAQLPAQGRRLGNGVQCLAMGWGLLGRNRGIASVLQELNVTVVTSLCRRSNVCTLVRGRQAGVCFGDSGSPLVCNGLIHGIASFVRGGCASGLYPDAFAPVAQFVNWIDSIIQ
- Assay name: Inhibitory effect on elastase (spectrophotometric method, substrate Suc-Ala-Pro-Ala-pNA)
- Assay type: biochemical
- Details: Y represents an oxygen atom; pH 8.0, 37° C., 30 minutes; read-out: Inhibitory Effect on Elastase, IC50
Readout type: IC50 (µM)

Prompt line: I'd like to know its IC50. The molecule in question is CC(C)OC(=O)c1ccc(Cl)cc1OC(=O)c1ccc(NC(=N)N)cc1
Response line: 14

Prompt line: Subsequent entry: COCc1cc(OC(=O)c2ccc(NC(=N)N)cc2)cc(OC(=O)c2ccc(NC(=N)N)cc2)c1
Response line: 9.1

Prompt line: Subsequent entry: COC(=O)c1cc(Cl)cc(OC(=O)c2ccc(NC(=N)N)cc2)c1
Response line: 1.8

Prompt line: Subsequent entry: CCS(=O)(=O)Oc1cc(C)cc(OC(=O)c2ccc(NC(=N)N)cc2)c1
Response line: 27

P: N=C(N)Nc1ccc(C(=O)Oc2ccc([N+](=O)[O-])cc2)cc1
Q: N=C(N)Nc1ccc(C(=O)Oc2cc(Cl)cc(C(N)=O)c2)cc1
R: COc1cc(Cl)cc(OC(=O)c2ccc(NC(=N)N)cc2)c1
S: N=C(N)Nc1ccc(C(=O)Oc2cc(Cl)cc(COc3cccnc3)c2)cc1
Prompt line: Output the entries ranked by IC50 from maximum down to minimum. Write the labels in rank order as requested.
Response line: P, Q, R, S

###

- System: elastase from human neutrophil (Homo sapiens)
- Construct: using elastase from human neutrophil; from tissue; host or cells: human neutrophil
- Assay name: Inhibitory effect on elastase (spectrophotometric method, substrate Suc-Ala-Pro-Ala-pNA)
- Format: biochemical
- Details: at 50 μg/ml; Y represents a sulfur atom; read-out: Elastase Inhibitory Effect, Inhibition %
Readout type: inhibition at 50 µg/mL (%)

Example entries begin here.
Prompt line: I'd like to know its inhibition at 50 µg/mL. The molecule in question is N=C(N)Nc1ccc(C(=O)Sc2ccc(Cl)cc2)cc1 [Example 134]
Response line: 69.5

Prompt line: Subsequent entry: N=C(N)Nc1ccc(C(=O)Sc2ccccc2Br)cc1 [Example 138]
Response line: 83.1

I: N=C(N)Nc1ccc(C(=O)Sc2ccc(C(=O)O)cc2)cc1 [Example 139]
II: Cc1ccccc1SC(=O)c1ccc(NC(=N)N)cc1 [Example 125]
III: N=C(N)Nc1ccc(C(=O)Sc2ccc(CC(=O)O)cc2)cc1 [Example 140]
Prompt line: Output the entries ranked by inhibition at 50 µg/mL from maximum down to minimum. Write the labels in rank order as requested.
Response line: II, III, I

###

- System: elastase from human neutrophil (Homo sapiens, UniProt P08246)
- Construct: using elastase from human neutrophil; from tissue; host or cells: human neutrophil
- Assay name: Inhibitory effect on elastase (spectrophotometric method, substrate Suc-Ala-Pro-Ala-pNA)
- Type: biochemical
- Details: at 50 μg/ml; Y represents a sulfur atom; read-out: Elastase Inhibitory Effect, Inhibition %
Readout type: inhibition at 50 µg/mL (%)

Example entries begin here.
Prompt line: I'd like to know its inhibition at 50 µg/mL. The compound in question is N=C(N)Nc1ccc(C(=O)Sc2ccc(Cl)c(Cl)c2)cc1
Response line: 35.5

Prompt line: Subsequent entry: Cc1cccc(SC(=O)c2ccc(NC(=N)N)cc2)c1
Response line: 89.7

Prompt line: Subsequent entry: CCOC(=O)Cc1ccc(SC(=O)c2ccc(NC(=N)N)cc2)cc1
Response line: 75.5

I: COc1cccc(SC(=O)c2ccc(NC(=N)N)cc2)c1
II: Cc1ccc(SC(=O)c2ccc(NC(=N)N)cc2)cc1
Prompt line: Given the listed items, does I or II have the lesser reported inhibition at 50 µg/mL? Write the label of whichever entry you select.
Response line: II

###

- System: elastase from human neutrophil (Homo sapiens)
- Construct: using elastase from human neutrophil; from tissue; host or cells: human neutrophil
- Assay name: Inhibitory effect on elastase (spectrophotometric method, substrate Suc-Ala-Pro-Ala-pNA)
- Assay type: biochemical
- Details: at 50 μg/ml; Y represents a sulfur atom; read-out: Elastase Inhibitory Effect, Inhibition %
Readout type: inhibition at 50 µg/mL (%)

Example entries begin here.
Prompt line: I'd like to know its inhibition at 50 µg/mL. The molecule in question is COc1ccccc1SC(=O)c1ccc(NC(=N)N)cc1
Response line: 79.8

Prompt line: Subsequent entry: N=C(N)Nc1ccc(C(=O)Sc2ccc([N+](=O)[O-])cc2)cc1
Response line: 64.2

Prompt line: Subsequent entry: CCN(CC)S(=O)(=O)c1ccc(SC(=O)c2ccc(NC(=N)N)cc2)cc1
Response line: 73.1

Prompt line: Subsequent entry: COc1ccc(SC(=O)c2ccc(NC(=N)N)cc2)cc1
Response line: 48.2

P: N=C(N)Nc1ccc(C(=O)Sc2c(Cl)cccc2Cl)cc1
Q: N=C(N)Nc1ccc(C(=O)Sc2ccccc2Cl)cc1
Prompt line: Between the two listed entries P and Q , which has its inhibition at 50 µg/mL at the higher number? Write the label of whichever entry you select.
Response line: Q
